Tested on: Escherichia coli TOP10;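 further: peptides expressed intracellularly from a pBAD plasmid library in pooled LB shake-flask culture, induced with 0.3% L-arabinose, DNA abundance read by NGS, three biological replicates, DESeq2 with apeglm shrinkage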
Assay: shrunken log2 fold change of peptide-encoding DNA abundance (4.5 h post-induction vs induction); higher = less antimicrobial activity (less host growth inhibition)
Details: time post-induction: 4.5 h; library: site-saturation at positions 5, 18, 19, 20
Decision: shrunken log2 fold change >= 0.008 yields true (1), all other cases yield false (0).

The examples below pair each entry with its known result.
RRIRPRPPRLPRPRPRPTMAPRP    true (1)
RRIRARPPRLPRPRPRPTTEPRP    true (1)
RRIRGRPPRLPRPRPRPWYWPRP    true (1)
RRIRNRPPRLPRPRPRPSNDPRP    false (0)
RRIRKRPPRLPRPRPRPLKLPRP    true (1)
RRIRFRPPRLPRPRPRPYRSPRP    false (0)
RRIRCRPPRLPRPRPRPCNIPRP    false (0)
RRIRARPPRLPRPRPRPVALPRP    true (1)
RRIRPRPPRLPRPRPRPFWKPRP    true (1)
RRIRGRPPRLPRPRPRPPAVPRP    true (1)

Req: hey, is shrunken log2 fold change for this one >= 0.008? RRIRARPPRLPRPRPRPRDWPRP
Resp: true (1)

Req: hey, is shrunken log2 fold change for this one >= 0.008? RRIRQRPPRLPRPRPRPLNLPRP
Resp: false (0)

Req: hey, is shrunken log2 fold change for this one >= 0.008? RRIRKRPPRLPRPRPRPSEEPRP
Resp: true (1)

Origin of the recorded values: the supplement of paper PMC9112550
